Molecular target: Gal(a1-3)Gal(b1-3)GlcNAc
Assay: glycan array binding signal (z-score within array); higher = stronger binding
Settings: glycan notation: IUPAC condensed, linker removed
Shown is part of a subset that was picked to be rich in the strongest signals.
Outcome label depends on glycan array binding signal (z-score) relative to 3: at/above gives 1 (yes), below gives 0 (no).

binder	label.class
MCL (Mus musculus), Q9Z2H6 (protein) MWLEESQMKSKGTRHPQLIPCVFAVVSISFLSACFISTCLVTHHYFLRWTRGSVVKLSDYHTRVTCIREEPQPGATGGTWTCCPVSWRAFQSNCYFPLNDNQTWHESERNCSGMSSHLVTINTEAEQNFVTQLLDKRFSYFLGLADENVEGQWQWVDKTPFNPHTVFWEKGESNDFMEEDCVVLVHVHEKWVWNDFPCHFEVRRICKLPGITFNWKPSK	0 (no)
Thrombomodulin (Mus musculus) (protein) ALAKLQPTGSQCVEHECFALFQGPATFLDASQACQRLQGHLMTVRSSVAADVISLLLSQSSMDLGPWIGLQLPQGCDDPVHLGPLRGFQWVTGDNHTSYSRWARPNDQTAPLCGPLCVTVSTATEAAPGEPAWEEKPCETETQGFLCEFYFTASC	1 (yes)
Drgal1 (Danio rerio) (protein) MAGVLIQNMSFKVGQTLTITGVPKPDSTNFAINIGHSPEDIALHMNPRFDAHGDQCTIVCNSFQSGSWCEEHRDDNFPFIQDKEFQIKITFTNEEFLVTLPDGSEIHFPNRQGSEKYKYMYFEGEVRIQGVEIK	0 (no)
EULS2 M3 (Oryza sativa) (protein) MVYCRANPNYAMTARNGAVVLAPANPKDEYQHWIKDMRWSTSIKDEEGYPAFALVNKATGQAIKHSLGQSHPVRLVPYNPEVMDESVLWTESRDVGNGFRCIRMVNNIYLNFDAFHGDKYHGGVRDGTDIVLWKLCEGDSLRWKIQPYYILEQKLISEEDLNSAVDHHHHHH	1 (yes)

Decide: glycan array binding signal (z-score) of Threefoil (Haloarcula marismortui) (protein) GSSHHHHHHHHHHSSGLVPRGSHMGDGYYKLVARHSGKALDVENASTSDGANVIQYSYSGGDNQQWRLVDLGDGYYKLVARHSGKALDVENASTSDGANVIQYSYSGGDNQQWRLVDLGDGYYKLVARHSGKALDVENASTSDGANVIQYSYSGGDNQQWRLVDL >= 3?
0 (no)
